Molecular target: CYP3A4 (Homo sapiens)
Experiment: Determination of IC50 against CYP3A4 by measurement of inhibition of testosterone metabolism (human liver microsomes, 6-β-OH-testosterone by LC-MS/MS)
Assay type: biochemical
Set-up: 0.1 mg/mL human liver microsomes
Conditions: read-out: IC50 (Testo.)
Protocol: 2. Determination of IC50 Against CYP3A4 by Measurement of Inhibition of Testosterone Metabolism This assay was performed using a standard 96 well plate design. […] Quantitation of metabolite peak area ratio against an internal standard is determined by LC-MS/MS analysis. The production of 6-β-OH-testosterone from testosterone metabolism is determined after incubation for eight minutes by comparison to a standard curve generated for the metabolite […]
// values below are reported IC50

{"columns": ["Chemical Smiles", "System", "Inequality Sign", "IC50 [nM]"],
 "data": [
  ["COc1cncc(NS(=O)(=O)c2ccccc2C(=O)NCc2ccc(Cl)cc2F)c1", "CYP3A4 (Homo sapiens)", "=", 15],
  ["CCOc1cncc(NS(=O)(=O)c2ccccc2C(=O)NC2CC2)c1", "CYP3A4 (Homo sapiens)", ">", 750],
  ["CN(c1cccnc1)S(=O)(=O)c1ccccc1C(=O)N1CCCC1", "CYP3A4 (Homo sapiens)", ">", 750],
  ["CCOc1cncc(NS(=O)(=O)c2ccccc2C(=O)N2CCOCC2)c1", "CYP3A4 (Homo sapiens)", ">", 750],
  ["CCOc1cncc(NS(=O)(=O)c2ccccc2C(=O)NCc2ccc(F)c(F)c2)c1", "CYP3A4 (Homo sapiens)", "=", 16],
  ["COc1ccncc1NS(=O)(=O)c1ccccc1C(=O)NCCc1ccccc1Cl", "CYP3A4 (Homo sapiens)", "=", 11],
  ["COCCN(C)C(=O)c1ccccc1S(=O)(=O)Nc1cnccc1C", "CYP3A4 (Homo sapiens)", "=", 285],
  ["Cc1cncc(NS(=O)(=O)c2ccccc2C(=O)N2CCCC(C)(C)C2)c1", "CYP3A4 (Homo sapiens)", "=", 80],
  ["O=C(c1ccccc1S(=O)(=O)Nc1cccnc1)N1CCN(c2ccccn2)CC1", "CYP3A4 (Homo sapiens)", "=", 211],
  ["COc1cncc(NS(=O)(=O)c2ccccc2C(=O)NCc2cccc(F)c2F)c1", "CYP3A4 (Homo sapiens)", "=", 13],
  ["O=C(NCC1CCCC1)c1ccccc1S(=O)(=O)Nc1cccnc1", "CYP3A4 (Homo sapiens)", "=", 31.8],
  ["COc1ccncc1NS(=O)(=O)c1ccccc1C(=O)NCCc1ccccc1OC(F)(F)F", "CYP3A4 (Homo sapiens)", "=", 12]
]}

###

Molecular target: CYP3A4 (Homo sapiens, UniProt P08684)
Sequence (P08684 whole entry): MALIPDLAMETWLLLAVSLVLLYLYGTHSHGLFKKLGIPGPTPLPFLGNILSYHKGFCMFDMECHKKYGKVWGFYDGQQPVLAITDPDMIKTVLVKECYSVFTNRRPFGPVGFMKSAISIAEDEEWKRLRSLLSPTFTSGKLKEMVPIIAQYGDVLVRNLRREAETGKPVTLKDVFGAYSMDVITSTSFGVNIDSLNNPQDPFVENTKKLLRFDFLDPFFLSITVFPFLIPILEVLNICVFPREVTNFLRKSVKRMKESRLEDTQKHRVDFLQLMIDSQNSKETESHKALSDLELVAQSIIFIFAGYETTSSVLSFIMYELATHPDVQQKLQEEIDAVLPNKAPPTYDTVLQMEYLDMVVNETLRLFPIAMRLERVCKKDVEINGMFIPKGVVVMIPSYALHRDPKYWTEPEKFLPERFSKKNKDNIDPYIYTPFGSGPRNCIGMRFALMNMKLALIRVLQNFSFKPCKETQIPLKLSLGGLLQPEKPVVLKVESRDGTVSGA
Assay: Determination of IC50 against CYP3A4 by measurement of inhibition of midazolam metabolism (human liver microsomes, 1-hydroxymidazolam by LC-MS/MS)
Format: biochemical
Parameters: 0.1 mg/mL human liver microsomes
Details: 2 μM midazolam, 0.1 mg/mL human liver microsomes
pIC50: −log10 of the molar value.
// values below are reported pIC50
Reported Endpoint: pIC50

{"columns": ["Molecule", "System", "Reported Endpoint", "Inequality Sign", "Endpoint Result"],
 "data": [
  ["COCCN(C(=O)c1ccccc1S(=O)(=O)Nc1cncc(OC)c1)C(C)C [Example 244]", "CYP3A4 (Homo sapiens, UniProt P08684)", "pIC50", ">", 7.80],
  ["CN(Cc1ccccc1)C(=O)c1ccccc1S(=O)(=O)N(C)c1cccnc1 [Example 355]", "CYP3A4 (Homo sapiens, UniProt P08684)", "pIC50", "=", 7.20],
  ["Cc1ccccc1CCNC(=O)c1ccccc1S(=O)(=O)N(C)c1cccnc1 [Example 325]", "CYP3A4 (Homo sapiens, UniProt P08684)", "pIC50", "=", 6.92],
  ["Cc1cncc(NS(=O)(=O)c2ccccc2C(=O)NC(C)(C)C)c1 [Example 354]", "CYP3A4 (Homo sapiens, UniProt P08684)", "pIC50", "=", 7.51],
  ["COc1cncc(NS(=O)(=O)c2ccccc2C(=O)N(C)Cc2cccc(F)c2)c1 [Example 346]", "CYP3A4 (Homo sapiens, UniProt P08684)", "pIC50", "=", 7.72],
  ["CC(C)(CNC(=O)c1ccccc1S(=O)(=O)Nc1cccnc1)N1CCOCC1 [Example 32]", "CYP3A4 (Homo sapiens, UniProt P08684)", "pIC50", "=", 6.38],
  ["CC1CC(C)CN(C(=O)c2ccccc2S(=O)(=O)Nc2cccnc2)C1 (stereo not shown) [Example 25]", "CYP3A4 (Homo sapiens, UniProt P08684)", "pIC50", "=", 7.35],
  ["CCOc1ccncc1NS(=O)(=O)c1ccccc1C(=O)NCCC(C)C [Example 271]", "CYP3A4 (Homo sapiens, UniProt P08684)", "pIC50", "=", 7.74],
  ["CCCCNC(=O)c1ccccc1S(=O)(=O)Nc1cncc(C#N)c1 [Example 24]", "CYP3A4 (Homo sapiens, UniProt P08684)", "pIC50", "=", 6.25],
  ["CCCCCNC(=O)c1ccccc1S(=O)(=O)N(C)c1cccnc1 [Example 340]", "CYP3A4 (Homo sapiens, UniProt P08684)", "pIC50", "=", 7.39],
  ["COc1cncc(NS(=O)(=O)c2ccc(OC)cc2C(=O)NCc2ccc(F)cc2)c1 [Example 111]", "CYP3A4 (Homo sapiens, UniProt P08684)", "pIC50", "=", 8.00],
  ["O=C(c1ccccc1S(=O)(=O)Nc1cccnc1)N1Cc2ccccc2C1 [Example 88]", "CYP3A4 (Homo sapiens, UniProt P08684)", "pIC50", "=", 6.73],
  ["CCOc1ccncc1NS(=O)(=O)c1ccccc1C(=O)N(C)Cc1ccccc1F [Example 124]", "CYP3A4 (Homo sapiens, UniProt P08684)", "pIC50", "=", 7.85],
  ["Cc1cncc(NS(=O)(=O)c2ccccc2C(=O)NC(C)C(C)C)c1 (stereo not shown) [Example 317]", "CYP3A4 (Homo sapiens, UniProt P08684)", "pIC50", "=", 7.82],
  ["CC[C@H](C)CNC(=O)c1ccccc1S(=O)(=O)Nc1cncc(OC)c1 [Example 96]", "CYP3A4 (Homo sapiens, UniProt P08684)", "pIC50", "=", 8.05],
  ["CC(C)(CN1CCCCC1)NC(=O)c1ccccc1S(=O)(=O)Nc1cccnc1 [Example 2]", "CYP3A4 (Homo sapiens, UniProt P08684)", "pIC50", "<", 6.12],
  ["Cc1cncc(NS(=O)(=O)c2ccccc2C(=O)N2CCC(C)CC2)c1 [Example 363]", "CYP3A4 (Homo sapiens, UniProt P08684)", "pIC50", "=", 7.43],
  ["COc1cncc(NS(=O)(=O)c2ccccc2C(=O)NC(C)(C)c2ccccc2)c1 [Example 381]", "CYP3A4 (Homo sapiens, UniProt P08684)", "pIC50", "=", 7.52],
  ["COc1cncc(NS(=O)(=O)c2ccc(OCCN3CCOCC3)cc2C(=O)N(C)C(C)C)c1 [Example 247]", "CYP3A4 (Homo sapiens, UniProt P08684)", "pIC50", "=", 7.27],
  ["CCOc1ccncc1NS(=O)(=O)c1ccccc1C(=O)N(C)Cc1ccc(C(F)(F)F)cc1 [Example 122]", "CYP3A4 (Homo sapiens, UniProt P08684)", "pIC50", "=", 7.51],
  ["COC1CCN(C(=O)c2ccccc2S(=O)(=O)Nc2cccnc2)CC1 [Example 26]", "CYP3A4 (Homo sapiens, UniProt P08684)", "pIC50", "=", 6.31],
  ["CCC(C)(C)NC(=O)c1ccccc1S(=O)(=O)Nc1cccnc1 [Example 38]", "CYP3A4 (Homo sapiens, UniProt P08684)", "pIC50", "=", 7.17],
  ["COCCN(C(=O)c1ccccc1S(=O)(=O)Nc1cccnc1)C(C)C [Example 128]", "CYP3A4 (Homo sapiens, UniProt P08684)", "pIC50", "=", 7.17],
  ["Cc1cncc(NS(=O)(=O)c2ccccc2C(=O)NCc2ccc(Cl)c(Cl)c2)c1 [Example 318]", "CYP3A4 (Homo sapiens, UniProt P08684)", "pIC50", "=", 6.84],
  ["COc1ccncc1NS(=O)(=O)c1ccccc1C(=O)N(C)C(C)C [Example 279]", "CYP3A4 (Homo sapiens, UniProt P08684)", "pIC50", "=", 6.91],
  ["CCCN(C(=O)c1ccccc1S(=O)(=O)Nc1cncc(OC)c1)C(C)C [Example 100]", "CYP3A4 (Homo sapiens, UniProt P08684)", "pIC50", "=", 7.85],
  ["COc1cncc(NS(=O)(=O)c2ccccc2C(=O)NCCc2ccc(C(F)(F)F)c(F)c2)c1 [Example 134]", "CYP3A4 (Homo sapiens, UniProt P08684)", "pIC50", "=", 7.85],
  ["CC1CCN(C(=O)c2ccccc2S(=O)(=O)N(C)c2cccnc2)CC1 [Example 356]", "CYP3A4 (Homo sapiens, UniProt P08684)", "pIC50", "=", 7.08]
]}
